Sourced from patent US20220125947A1

Below, each entry is listed alongside its reported Max. Activity (fold over background).
target: Vg5/Vd2 TCR on SKW3 cells (UniProt A0JD36); assay: flow cytometry, dose-response binding at 37° C. on SKW3 cells expressing Vg5/Vd2
Sequence (A0JD36 20-115): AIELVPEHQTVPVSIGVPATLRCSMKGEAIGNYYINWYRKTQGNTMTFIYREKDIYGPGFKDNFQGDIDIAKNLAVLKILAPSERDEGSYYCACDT

# Binder, Max. Activity (fold over background)
rows = [
    ("VG9B67 (antibody, human IgG1, kappa, V domains shown) VH: EVQLVESGGGLVKPGGSLRLSCAASGFTFSSYTMNWVRQAPGKGLEWVSSISSSSSYIDYAESVKGRFTISRDNAKNSLYLQMNSLRAEDTAVYYCARDGDILATIRGSFDYWGQGTTVTVSS VL: DIVMTQTPLSLPVTPGEPASISCRSSQSLLDSDAGNTYLDWYLQKPGQSPQLLIYTLSYRASGVPDRFSGSGSGTDFTLKISRVEAEDVAIYYCMQRIEFPITFGQGTKVEIKR", 1.14),
    ("VG9B409 (antibody, human IgG1, kappa, V domains shown) VH: EVQLVESGAEVKKPGASVKVSCKASGYTLTSYYMHWVRQAPGQGLEWMGIINPSGGSTSYAQKFQGRVTMTRDTSTSTVYMELSSLRSEDTAVYYCARGSYGWYFDLWGRGTLVTVSS VL: EIVLTQSPGTLSLSPGERATLSCRASQSVTSSYLAWYQQKPGQTPRLLIYGASSRATGIPDRISGSGSGTDFTLTVSRLEPEDFAVYYCQQYGSSPPYTFGQGTKLEIKR", 8.45),
    ("VG9B152 (antibody, human IgG1, lambda, V domains shown) VH: EVQLVESGGGLVRPGGSLRLSCEASGFTFSSYSMIWVRQAPGKGLEWVSSISSSSDYIYNADSVKGRFTISRDNAKNSLYLQMNSLRAEDTAVYYCARDWELLGFDCWGQGTTVTVSS VL: SYELMQPPSVSVSPGQTASITCSGDKLGDKYACWYQQKPGQSPVLVIYQHNKRPSGIPERFSGSNSGKTATLTISGTQAMDEADYYCQAWDSTTVVFGGGTKLTVLG", 1.64),
    ("VG9B66 (antibody, human IgG1, kappa, V domains shown) VH: EVQLVESGGGLVKPGGSLRLSCAASGFTFSTYTMNWVRQAPGKGLEWVSSISSSSFYMDYADSVKGRFTISRDNAKNSLSLLMNSLRAEDTAVYYCARDGDIVATIRGSFDYWGQGTMVTVSS VL: EIVLTQSPSSLSTSVGDRVTITCRASQDITNFLAWYQQKPGKLPKLLIYTASTLQSGVPSRFSGSASGPDFTLTISSLQPEDVATYYCQKYNSAPFTFGPGTKVEIKR", 1.04),
    ("VG9B21 (antibody, human IgG1, kappa, V domains shown) VH: EVQLLESGGGLVKPGGSLRLSCAASGFSFSNYDMNWVRQAPRKGLEWVSSISSSSHYIYYADSLKGRFTISRDNAKNSLFLQMNSLRAEDTAVYYCARDRGVTTDYYYYALDVWGQGTMVTVSS VL: DIVMTQSPSSLSASVGDRVTITCRASQGIYNYLAWYQQKPGNVPKLLIYAASTLQSGVPSRFSGSGSGTDFSLTISSLQPEDFTTYYCQKYNRAPFTFGPGTKVDIKR", 1.86),
    ("VG9B44 (antibody, human IgG1, kappa, V domains shown) VH: QVQLQQSGPGLVKPSQTLSLTCAISGDSVSSNSAAWNWIRQSPSRGLEWLGRTYYRSKWYNDYPISVKSRISINPDTSKNQFSLQLNSVTPEDTAVYYCARESGSYYTDGFDIWGQGTMVTVSS VL: DIQMTQSPSFLSASVGDRVTITCRASQGISSYLAWYQQKPGKAPKLLIYAASTLQSGVPSRFSGSGSGTEFTLTISSLQPEDFATYYCQEFNSYPYTFGQGTKLEIKR", 2.13),
    ("VG9B127 (antibody, human IgG1, kappa, V domains shown) VH: QVQLVESGGGLVKPGGSLRLSCTASGFTFGAYTMNWVRQAPGKGLEWVSSISSSSSYIDFAESVKGRFTISRDNAKNSLYLQMISLRAEDTAVYYCARDGDIVSTIRGSFDYWGQGALVTVSS VL: EIVMTQSPLSLPVTPGEPASISCRSSQSLLDSDDGNTYLDWYLQKPGQSPQLLIYTLSYRASGVPDRFSGSGSGTDFTLKISRVEAEDVGIYYCMQRIEFPITFGQGTKVEIKR", 1.78),
    ("VG9B57 (antibody, human IgG1, kappa, V domains shown) VH: EVQLVESGGGLVKPGGSLRLSCAASGFTFSSHDMNWVRQAPGKGLGWVSSISSSSSYIFYADSVKGRFTISRDNAKNSLYLQMSSLRAEDTAVYYCARDLGVGVRDYYYYGMDVWGQGTMVTVSS VL: DIQMTQSPSAMSASVGDRVTITCRASQDITNYLAWFQQKPGKVPKRLIYAASSLQGGVPSRFSGSGSGTEFTLTISSLQPEDFSTYYCLQHDTYPYTFGQGTKLEIKR", 1.04),
    ("VG9B60 (antibody, human IgG1, kappa, V domains shown) VH: QVQLVQSGAEVKKPGASVKVSCKASGYTFTGYYMHWVRQAPGQGLEWMGRINPNSGVTHYAQKFQGRVTMTRDTSISTAYMELSRLRSDDTAVYYCARGGSLVRGVISGLDYWGQGTTVTVSS VL: DIVMTQSPGTLSLSPGERATLSCRASQSFSGSYLAWYQQKPGQAPSLLIYGASSRATGIPDRFSGSGSGTDFTLTISRLEPEDFALYYCQQYGSSPPYTFGQGTKVEIKR", 1.42),
]
